experiment: chemical genetic growth profiling, strain panel (AID 1159580);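 note: tested at 20 µM; growth read once vehicle control cultures reached saturation at 30 °C; 1 = growth at the plate median or of vehicle wells; lower values mean less growth of the strain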; settings: S. cerevisiae deletion strains, growth OD, locus YBR171W, strain sec66, active compounds read low
Out of some 5,500 compounds screened, about 2,000 (36%) were called active. About 18% were inconclusive and are not listed. Some of the results follow.
Reported normalized growth is given for each of the following molecules.

molecule	normalized growth
c1ccc2c(CC3=NCCN3)cccc2c1	0.976
C=C1C(=O)[C@]23[C@H](O)[C@H]1CC[C@H]2[C@@]12CO[C@]3(O)[C@H](O)[C@@H]1C(C)(C)CC[C@@H]2O	0.999
CC(=O)Oc1c2c(c3c(c1CC=C(C)C)O[C@]14C(=C[C@@H]5CC1C(C)(C)OC4(C/C=C(\C)C(=O)O)C5=O)C3=O)OC(C)(CCC=C(C)C)C=C2 (stereo partly drawn)	0.974

* * *

test: chemical genetic growth profiling, strain panel (AID 1159580);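 note: tested at 20 µM; growth read once vehicle control cultures reached saturation at 30 °C; 1 = growth at the plate median or of vehicle wells; lower values mean less growth of the strain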; details: S. cerevisiae deletion strains, growth OD, locus YML070W, strain DAK1, active compounds read low
The campaign covered roughly 5,500 compounds. About 2,000 (36%) were called active. Not shown: some 18% with an inconclusive outcome. The list shows a part of the results.
assay readout: normalized growth

> print(dat)
                                        mol  obs.value
1             Clc1ccccc1-c1csc(-c2ccncc2)n1      0.977
2  O=S(=O)(NCc1ccc(C(F)(F)F)cc1)c1cccc(C(F)(F)F)c1      0.921
3    O=[N+]([O-])c1ccsc1Oc1cccc(C(F)(F)F)c1      0.895
4             COc1ccc(-c2cn3cc(C)ccc3n2)cc1      0.956
5             Clc1ccccc1-c1csc(-c2cccnc2)n1      0.787
6  FC(F)(F)c1cc(NC(=S)SCCSC(=S)Nc2cc(C(F)(F)F)cc(C(F)(F)F)c2)cc(C(F)(F)F)c1      0.908
7         N#Cc1ccc(Oc2sccc2[N+](=O)[O-])cc1      0.869
8  O=C(Nc1ccncc1)c1cc(-c2ccccc2)oc1C(F)(F)F      0.951

* * *

Reported normalized growth is given for each of the following compounds.
assay: chemical genetic growth profiling, strain panel (AID 1159580);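 note: tested at 20 µM; growth read once vehicle control cultures reached saturation at 30 °C; 1 = growth at the plate median or of vehicle wells; lower values mean less growth of the strain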; settings: S. cerevisiae deletion strains, growth OD, locus YDR101C, strain arx1, active compounds read low
Screen size: about 5,500 compounds; about 2,000 (36%) were called active. Inconclusive results (about 18%) are left out. This is one part of the list.
assay readout: normalized growth

compound	obs value
O=NN(CCCl)C(=O)NCCCl	0.994
Cc1cccc(C)c1NC(=O)C1CCCCN1C (stereo not drawn)	1
CC(=O)O[C@@H]1CC2C(C)(C)C(=O)C3OC3[C@]2(C)C2CC[C@@]3(C)[C@H](c4ccoc4)OC(=O)C4OC43[C@@]21C (stereo partly drawn)	1.01
CCCn1c(=O)c2[nH]c(C3CCCC3)nc2n(CCC)c1=O	0.976
CC(=O)O[C@]1(C)CC[C@@]23CC1C(C)(C)[C@@H]2CC[C@H]3C	1.02
NCCCNCCSP(=O)(O)O	1
O=C(O)C(O)C(O)C(=O)O (stereo not drawn)	0.994
Cc1onc(-c2ccccc2)c1-c1ccc(S(N)(=O)=O)cc1	0.997
CC(=O)O[C@@H]1CC2C(C)(C)[C@H](O)CC[C@]2(C)C2CC[C@@]3(C)[C@H](c4ccoc4)OC(=O)C4OC43[C@@]21C (stereo partly drawn)	0.967
C[C@@H]1CC[C@H]2C(C)(C)C3CC12CC[C@@]3(C)O (stereo partly drawn)	0.939
NCC[C@@H](O)C(=O)N[C@@H]1C[C@H](N)[C@@H](O[C@H]2O[C@H](CN)[C@@H](O)[C@H](O)[C@H]2O)[C@H](O)[C@H]1O[C@H]1O[C@H](CO)[C@@H](O)[C@H](N)C1O (stereo partly drawn)	0.998
C=NC(C(=O)NC1C(=O)N2C1SC(C)(C)C2C(=O)O)c1ccccc1 (stereo not drawn)	1
C[C@]12CCC3c4ccc(O)cc4CCC3C1CCC2=O (stereo partly drawn)	0.923
C[C@]12CCC3c4ccc(OC(=O)c5ccccc5)cc4CCC3C1CCC2=O (stereo partly drawn)	0.969
CCC(=O)OC1[C@@H]2CC3=C4CC(=O)O[C@@H](c5ccoc5)[C@]4(C)CCC3[C@@](C)(C2=O)[C@@H](CC(=O)OC)C1(C)C (stereo partly drawn)	1.02
CC1CCC(NC(=O)N(CCCl)N=O)CC1 (stereo not drawn)	0.99
Cc1oncc1C(=O)Nc1ccc(C(F)(F)F)cc1	0.991
COc1ccc2c(=O)c(OC)c(-c3ccccc3)oc2c1	0.855
NC(=O)NC1NC(=O)NC1=O (stereo not drawn)	0.98
Cc1ccc(C(=O)c2ccc(CC(=O)O)n2C)cc1	0.985
CC(=O)OC1CC(OC(C)=O)C2(C)C(CC(OC(C)=O)C3(C)C2CCC2(C)C(c4ccoc4)OC(=O)C4OC423)C1(C)C (stereo not drawn)	0.981
CC(=O)O[C@H]1C[C@@H](OC(C)=O)C(C)(C)C2C[C@@H](OC(C)=O)[C@]3(C)C(CC[C@@]4(C)[C@H](c5ccoc5)OC(=O)[C@H]5O[C@]543)[C@]21C (stereo partly drawn)	1.02
CCCNC(=O)NS(=O)(=O)c1ccc(Cl)cc1	1.01
CN(C)C(=O)Oc1ccc[n+](C)c1	1.02
NC(C(=O)O)C(O)C(=O)O (stereo not drawn)	1.04
CN=C(N)NCCCC(N)C(=O)O (stereo not drawn)	1.01
COc1ccc2oc(-c3ccccc3)c(OC)c(=O)c2c1	0.887
CC(=O)O[C@@H]1CC2C(C)(C)[C@@H](O)CC[C@]2(C)C2CC[C@@]3(C)[C@H](c4ccoc4)OC(=O)[C@H]4O[C@]43[C@@]21C (stereo partly drawn)	0.973
CC(C)c1nc(N(C)S(C)(=O)=O)nc(-c2ccc(F)cc2)c1/C=C/[C@@H](O)C[C@@H](O)CC(=O)O	0.999
Cc1cc(CC(=O)O)n(C)c1C(=O)c1ccc(Cl)cc1	1.01
C=C[C@@]1(C)CC(=O)[C@@]2(O)[C@](C)(O1)[C@@H](OC(C)=O)[C@@H](O)C1C(C)(C)CC[C@H](O)[C@@]12C (stereo partly drawn)	0.986
CC(C)=CC1C(C(=O)OCc2cccc(Oc3ccccc3)c2)C1(C)C (stereo not drawn)	0.967
COC(=O)/C(C)=C\CC12OC(C)(C)C3CC(C=C4C(=O)c5c(OC)c6c(c(CC=C(C)C)c5OC431)OC(C)(CCC=C(C)C)C=C6)C2=O (stereo not drawn)	0.989
CC(=O)Oc1ccc2c(c1)CCC1C2CC[C@]2(C)C(=O)CCC12 (stereo partly drawn)	1.02
CC(=O)O[C@H]1CC[C@@]2(C)C(C[C@@H](OC(C)=O)[C@]3(C)C2CC[C@@]2(C)[C@H](c4ccoc4)OC(=O)[C@H]4O[C@]423)C1(C)C (stereo partly drawn)	1.01
Cc1cc(/C=C/c2ccc3cc(N(C)C)ccc3[n+]2C)c(C)n1-c1ccccc1	0.986
NC(N)=NCCN1CCCCCCC1	1.01
C1N2CN3CN1CN(C2)C3	0.977
